- procedure_summary: Drug degradation in DMAP/CH2Cl2 solution assessed as hydrolysis after 48 hrs
- Format: physicochemical
- condition_notes: read-out: Drug degradation
experimental_endpoint: degraded at 48 h (%)
Write the answer as a number in %, unit excluded.

Qu. Fill blank: measured degraded at 48 h of the compound CC(C)(C)OC(=O)N1C[C@@H](CCl)c2c1cc1c3c(cccc23)NC(=O)O1 is ____.
Ans. 12

###

- procedure_summary: Half life in human plasma at 1 ug/mL at pH 7 by HPLC analysis
- Assay type: ADME, cell-free
experimental_endpoint: half-life at 1 ug/mL

Qu. Quick check: half-life at 1 ug/mL of CCN(CC)c1ccc2cc(C(=O)Nc3ccc4[nH]c(C(=O)N5C[C@@H](CCl)c6c5cc(OC(=O)Nc5ccccc5)c5[nH]cc(C)c65)cc4c3)oc2c1 [CARZELESIN] ?
Ans. < 1 h

###

- procedure_summary: Fraction unbound in human plasma incubated over 48 hrs
- Format: ADME, cell-free
experimental_endpoint: fraction unbound at 48 h
Just the number, please, no unit attached.

Qu. Using the record for O=C1Nc2cccc3c4c(cc(c23)O1)N(C(=O)c1cc2cc(NC(=O)c3cc5ccccc5[nH]3)ccc2[nH]1)C[C@H]4CCl , report its fraction unbound at 48 h.
Ans. 0.05

###

- procedure_summary: Drug degradation in NaHCO3/1:1 of THF:H2O solution assessed as hydrolysis after 2 hrs
- Assay type: physicochemical
- condition_notes: NaHCO3 in 1:1 THF:H2O solution; read-out: Drug degradation
experimental_endpoint: degraded at 2 h

Qu. Quick check: degraded at 2 h of CC(C)(C)OC(=O)N1C[C@@H](CCl)c2c1cc1c3c(cccc23)NC(=O)O1 ?
Ans. < 4%

###

- procedure_summary: Half life in calf serum at 2 uM by RP-HPLC analysis
- Format: ADME, cell-free, Bos taurus
- condition_notes: cattle
experimental_endpoint: half-life at 2 µM (min)
Value expressed in min; do not type the unit.

Qu. Fill in the blank: the reported half-life at 2 µM of Br.COC(=O)c1c(C)[nH]c2c(OC(=O)N3CCN(C)CC3)cc3c(c12)[C@H](CBr)CN3C(=O)c1cc2cc(OC)c(OC)c(OC)c2[nH]1 [PIBROZELESIN HYDROBROMIDE] is ____.
Ans. 1200
